Reference for the values: patent US20140093973A1

molecular target: soluble HLA-A*0201 (sHLA-A*0201) (human); assay: FP, sHLA-A*0201 titrated against 10 nM FITC-labeled P4; the EC50 is an sHLA concentration
pEC50: −log10 of the molar value. Ends that are not written are not given here.
experimental_endpoint: pEC50

binder="LVFGKEVVEV (not fully specified) [A*0201/P4, FITC-labeled peptide …]" result=6.55
